Observed Property: melting point

>>> measured("Cc1c(SCCCCSCCn2c([N+](=O)[O-])cnc2C)ccnc1CO")
"86 to 87 °C"
>>> measured("NNC(=O)Cc1ccccc1S(N)(=O)=O")
"116 to 125 °C"
>>> measured("CC(=O)Nc1ccc(C(C)=O)c(C)n1")
"201 to 202 °C"
>>> measured("COc1cccc(C2(c3cccc(OC)c3)CC2C=CC(=O)NC(C)CCCc2cccnc2)c1 (single isomer, unassigned)")
"104 to 106 °C"
>>> measured("NC(=O)c1ccnc(Cl)n1")
"152 to 154 °C"

// each compound listed below needs its melting point
1. N#CN=C1NCCN1CC#CCNC(=O)C(O)(c1ccccc1)C1CCCCC1 (stereo not given)
2. Cc1oc(-c2ccccc2)nc1CCC(N)=O
3. CCOP(=O)(/C=C/c1ccc2cc(NC(=O)c3cccnc3)cc(-c3cccc4ccccc34)c2n1)OCC
4. COc1ccc(N2CCN(c3c(C)c(C)c4c(c3C)CC3(CCCC3)O4)CC2)cc1

Response:
1. 207 to 210 °C
2. 149 to 150 °C
3. 216 to 217 °C
4. 137 to 139 °C

Query: Any idea what its melting point is? The compound is CCOC(=O)c1cc(N=c2sc(=S)n3n2CCCC3)c(F)cc1F
Response: 91 to 92 °C

---

Observed Property: melting point

>>> measured("CCOC(=O)C(O)Cc1ccc(OCCNC(=O)c2ccc(-c3ccccn3)cc2)cc1 (stereo not given)")
"97 to 99 °C"
>>> measured("C=CCC(C)(C)C(=O)NC1CCCNC(=O)C1 (stereo not given)")
"71 to 72 °C"
>>> measured("CC1(C)OC(C=Cc2ccsc2)=CC1=O")
"79 to 80 °C"
>>> measured("CC(C)(C)c1cc(SC2CC(=O)N(c3ccccc3)C2=O)cc(C(C)(C)C)c1O (stereo not given)")
"134 to 137 °C"
>>> measured("COC(=O)c1ccc(N2C(=O)CCC2(CO)CO)c(N)c1")
"192 to 194 °C"

Hello, I would appreciate it if you could give melting point for each entry below.
1. Cc1nn(-c2ccccn2)c2nc3ccccc3c(N(C)C)c12
2. O=Cc1ccc2nc3c(cc2c1)-c1cccc2cccc-3c12
3. CC(C)(C)C(=O)Nc1cccc(P(c2ccccc2)c2cccc3ccccc23)n1 (stereo not given)
4. O=C(Nc1ccc(CN2C(=O)[C@H]3CCC[C@H]3N(C(=O)CN3C(=O)c4ccccc4C3=O)c3ccccc32)cc1)c1ccccc1 (relative stereo)
5. Nc1ccc2[nH]nc(Nc3nc(-c4ccccc4C(F)(F)F)nc4ccccc34)c2c1

Response:
98 to 101 °C
245 to 246 °C
55 °C
252 to 255 °C
221 to 223 °C

Please go through the list and note melting point for each compound.
1. CC(CO)NC1=NS(=O)(=O)c2cnccc2N1 (stereo not given)
2. COc1ccc2c(C(=O)O)c(OC)ccc2c1
3. Fc1cc(C(F)(F)F)cc(Cl)c1Oc1ccc2cn[nH]c2c1
4. NNC(=O)c1cccc(OCc2csc(-c3ccccc3F)n2)c1
5. Nc1c(CCO)cc(Cl)cc1C(O)c1ccccc1 (stereo not given)
6. CSc1nccc(-c2c(-c3ccc(F)cc3)ncn2C2CCN(C)CC2)n1
7. CN(Cc1cc2c3c(c1)c(=O)c(C(=O)NCc1ccc(F)cc1)cn3CC(=O)N2C)C[C@@H](O)c1cc2ccccc2o1

Response:
1. 213 to 216 °C
2. 153 to 155 °C
3. 134 to 143 °C
4. 143 to 145 °C
5. 130 to 132 °C
6. 181 to 182 °C
7. 94 to 96 °C

---

Give melting point for every item shown.

// each compound listed below needs its melting point
1. CC(C)(C)OC(=O)N1CCCC(c2ccc3c(c2)C2(CO3)C(=O)N(Cc3ccc(C(F)(F)F)o3)c3ccccc32)C1 (stereo not drawn)
2. Cc1c(-c2ccnc3cc(Cl)ccc23)c2cc(NS(C)(=O)=O)ccc2n1CC(=O)O
3. CCCCCCCCN1C(=O)c2c(Br)sc(Br)c2C1=O
4. N#Cc1nn(-c2c(Cl)cc(-c3ccc(C(F)(F)F)cc3)cc2Cl)c(N)c1S(=O)(=O)C(F)(F)F
5. COc1ccc(C=C2CCc3cc(OCCn4ccnc4)ccc3C2=O)cc1
6. O=C(O)c1ccc(N2CC(=O)N(S(=O)(=O)c3ccc(Cl)cc3)C2=O)cc1
7. O=Cc1cccc(-c2cc(-c3ccc(C(F)(F)F)cc3)no2)c1

Response:
1: 59 to 61 °C; 2: 195 to 198 °C; 3: 104 °C; 4: 197 to 202 °C; 5: 132 to 133 °C; 6: 271 to 272 °C; 7: 151 to 152 °C

Query: Which measured melting point value corresponds to Cc1ccc(-c2c(C(=O)NCc3cc(C(F)(F)F)cc(C(F)(F)F)c3)n(CCC(C)CO)c(=O)c3ncccc23)cc1 (racemic) ?
Response: 129 to 130 °C

---

So I've got a bunch of molecules here, and I need their melting point values.

>>> measured("NS(=O)(=O)c1ccc(S[C@H]2CC[C@H](O)CC2)s1")
"145 to 147 °C"

For every item below, please supply its melting point.
1. CCOC(=O)c1cnc2sc(-c3cccnc3)nn2c1=O
2. COCC(=O)Nc1nc(N)nc(NC2CC2)n1
3. CCCCCCCC1CC(C(=O)O)C(=O)O1 (stereo unspecified)
4. CC(C)(C)c1cc(N(C(=O)C=CC(=O)O)c2ccccc2)cc(C(C)(C)C)c1O
5. Cc1cc2cc(CN3CCCC3)cnc2cc1NC(=O)c1ccc(-c2ccccc2)c(F)c1

Response:
1: 200 to 202 °C; 2: 152 to 157 °C; 3: 51 to 54 °C; 4: 154 to 157 °C; 5: 167 to 170 °C

---

For each record, write down the corresponding melting point.

Fill in melting point for each of the 2 compounds listed.
1. O=C1Nc2ccccc2N2CCCC12 (stereo unspecified)
2. Nc1cc(F)c(F)cc1C(=O)c1ccccc1

Response:
1: 169 to 172 °C; 2: 100 to 101 °C

---

Observed Property: melting point

Here's what some known entries look like.
>>> measured("CC1CC(=O)NN=C1c1ccc(N2CCN(C#N)CC2)c([N+](=O)[O-])c1 (stereo not given)")
"247 to 248 °C"
>>> measured("C[C@@H]1O[C@](C#CC2CC2)(C(F)(F)F)c2c(ccc(F)c2F)NC1=O (relative stereo)")
"219 to 220 °C"
>>> measured("CC1=C(c2c[nH]c(-c3ccc(F)cc3)c2-c2ccncc2)CCN2CCC[C@@H]12")
"233 to 234 °C"
>>> measured("Cc1c2c(c(-c3ccc(F)cc3)c3c4c(ccc13)OCO4)CNC2=O")
"293 to 295 °C"
>>> measured("COc1cccc2c(C(F)(F)F)cc(N3CCNCC3)nc12")
"130 °C"

Consider the following items and state reported melting point for each.
1. Nc1ncc(Cc2ccc3c(c2)CCCN3)c(N)n1
2. CCN(Cc1ccccc1)C(=O)Cc1c(-c2ccc(Cl)cc2)nc2cc(C)ccn12
3. CCOC(=O)c1cn(C2CC2)c2c(F)c(F)c(F)c(N)c2c1=O
4. O=C1Nc2cc(F)ccc2N2CCN(CCCCc3ccncc3)CC12 (stereo not given)
5. CC(=CC(=O)Nc1ccc(C(=O)O)cc1)c1cc(C(C)C)c(C(C)C)o1
6. CCOC(=O)CCc1ccc(NC(=O)c2csc(NC(=O)NCc3ccccc3)n2)cc1
7. COc1ccc(CC(=O)O)cc1C(C)C
8. COc1cc(OC)cc(C(=CC#N)c2ccc3c(c2)nc(C)n3C)c1

Response:
["284 to 287 °C", "192 to 193 °C", "223 to 225 °C", "262 to 264 °C", "232 to 235 °C", "194 °C", "94 to 96 °C", "199 to 201 °C"]

---

For each entry below, report its melting point value.

Batch: melting point for all items listed.
1. CCCCNc1nc(C)c(C(=O)c2ccc(Cl)c([N+](=O)[O-])c2)s1
2. Cc1ccc(Nc2nc(-c3ccccn3)cs2)nc1

Response:
1: 125 to 128 °C; 2: 184 to 190 °C

---

Hi there, I'd appreciate the recorded melting point for every entry that follows.

Reference set (8 entries):
>>> measured("CCc1cc(O)cc(=O)o1")
"106 to 108 °C"
>>> measured("Cc1csc(C2(c3cccs3)CCCO2)n1 (stereo unspecified)")
"59 to 60 °C"
>>> measured("O=c1[nH]cnc2c1ncn2[C@@H]1C[C@H](O)[C@@H](O)[C@H]1O (racemic)")
"198 to 201 °C"
>>> measured("COc1ccccc1Oc1c(N=[N+]=[N-])nc(N2CCOCC2)nc1OCCOCc1ccccc1")
"146 to 148 °C"
>>> measured("N#Cc1cccc2c1CC(Br)C2=O (stereo unspecified)")
"124 °C"
>>> measured("c1ccc2ncc(N3CCNCC3)cc2c1")
"87.7 to 88.5 °C"
>>> measured("NC(=O)COc1c(-c2ccccc2)c(=O)[nH]c2cc(Cl)ccc12")
"262 to 264 °C"
>>> measured("CC(=O)c1ccc(OC(C)(C)C(=O)O)c(Cl)c1")
"123 to 125 °C"

Would you mind giving melting point for every compound in the list below?
1. CC1(C)CCC(C)(C)c2c(CC#Cc3ccc(C(=O)O)cc3)cc(-c3ccccc3)cc21
2. Nc1cc(Oc2ccc3c(C(=O)Nc4cccc(C(F)(F)F)c4)nccc3c2)ncn1
3. CCc1c([N+](=O)[O-])ccc2cc[nH]c12

Response:
1: 228 °C; 2: 197 to 200 °C; 3: 50 °C

Cited source for all entries: a melting point compilation (Tetko et al.; mined from patent text by program, amines drawn as free bases though some values may be those of a salt)
